Biological target: FGFR3 (UniProt P22607)
Sequence (P22607 whole entry, looked up): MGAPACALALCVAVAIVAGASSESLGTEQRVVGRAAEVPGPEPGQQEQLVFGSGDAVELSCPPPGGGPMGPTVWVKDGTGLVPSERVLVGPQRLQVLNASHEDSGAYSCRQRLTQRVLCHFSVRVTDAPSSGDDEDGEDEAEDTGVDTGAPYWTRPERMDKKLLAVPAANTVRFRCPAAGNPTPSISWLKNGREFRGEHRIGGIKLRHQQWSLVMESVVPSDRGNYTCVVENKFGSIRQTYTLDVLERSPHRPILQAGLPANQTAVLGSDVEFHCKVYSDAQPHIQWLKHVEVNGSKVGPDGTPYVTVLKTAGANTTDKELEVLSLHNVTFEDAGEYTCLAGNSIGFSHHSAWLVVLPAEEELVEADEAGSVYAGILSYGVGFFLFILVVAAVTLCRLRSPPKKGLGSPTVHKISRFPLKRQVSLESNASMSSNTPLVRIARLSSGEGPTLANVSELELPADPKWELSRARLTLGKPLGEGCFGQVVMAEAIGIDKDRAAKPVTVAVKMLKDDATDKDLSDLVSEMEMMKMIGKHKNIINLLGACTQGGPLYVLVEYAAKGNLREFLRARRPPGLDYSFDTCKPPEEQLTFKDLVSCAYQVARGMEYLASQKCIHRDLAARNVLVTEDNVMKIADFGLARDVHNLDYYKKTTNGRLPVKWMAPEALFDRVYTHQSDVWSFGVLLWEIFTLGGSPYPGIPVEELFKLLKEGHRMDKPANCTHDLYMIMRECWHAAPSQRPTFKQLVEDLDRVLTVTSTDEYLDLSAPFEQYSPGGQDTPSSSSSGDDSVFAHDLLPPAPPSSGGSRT
Experiment: phosphorylation enrichment, bacterial display (enrichment ratio); higher = better substrate or ligand; peptides without Tyr show the background;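 further: 11-residue human phosphosite peptides and single-mutation variants displayed on the E. coli surface, counted by deep sequencing, each peptide's frequency after selection divided by its frequency in the unselected input library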;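 further: frequency after pTyr selection over input frequency; kinase dosed for 20-30% of maximal phosphorylation in three min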

{"columns": ["Input sequence", "Target", "phosphorylation enrichment"],
 "data": [
  ["RNIQQYNSFVS [PRKAR1A_Y373]", "FGFR3 (UniProt P22607)", 0.787],
  ["EVGHVYLFLQP [ITGA2B_Y360_R358H]", "FGFR3 (UniProt P22607)", 0.893],
  ["CNTIHYNFMCN [TP53_Y234_T230N_YF]", "FGFR3 (UniProt P22607)", 0.515],
  ["PPPPAYDDMAQ [TNK2_Y635_V638M]", "FGFR3 (UniProt P22607)", 0.762],
  ["ARTNEYKIIRS [INA_Y87_T92S]", "FGFR3 (UniProt P22607)", 0.406],
  ["VASMFYTLVIP [OR8K3_Y277_I275M]", "FGFR3 (UniProt P22607)", 2.37],
  ["SKKSTYRALLD [GANC_Y43_Q44R]", "FGFR3 (UniProt P22607)", 0.348],
  ["AERKLYRNVML [ZNF569_Y33_Q29E]", "FGFR3 (UniProt P22607)", 0.407],
  ["RKRQFYLYKGK [RSPO4_Y112_C107R]", "FGFR3 (UniProt P22607)", 0.4],
  ["KLKEKYQKDIA [HMGB1_Y155_E156Q]", "FGFR3 (UniProt P22607)", 1.21],
  ["ENELTYYCYKK [CD59_Y86_C89Y]", "FGFR3 (UniProt P22607)", 1.53],
  ["YRRITYHNWRH [PDE6B_Y556]", "FGFR3 (UniProt P22607)", 0.425],
  ["LGGAMYFLEAE [PKHD1_Y452_YF]", "FGFR3 (UniProt P22607)", 1.51],
  ["IKELTYQTEED [MYH7_Y1852]", "FGFR3 (UniProt P22607)", 0.773],
  ["PADSGYPAFLG [ATP6V1A_Y374_YF]", "FGFR3 (UniProt P22607)", 1.36],
  ["EALSLYTKLMN [STAM_Y371]", "FGFR3 (UniProt P22607)", 0.856],
  ["AKKKMYSHKTK [AGXT_Y231_R233H]", "FGFR3 (UniProt P22607)", 2.37],
  ["MSRNLYSGDCY [DDR2_Y736_Y740C]", "FGFR3 (UniProt P22607)", 1.15],
  ["EDDPEYMRLRN [ADD2_Y31]", "FGFR3 (UniProt P22607)", 0.887],
  ["SSFDTYHLSRE [KIR3DL2_Y253_I252T_YF]", "FGFR3 (UniProt P22607)", 0.595],
  ["PVGDVYKKKGL [NMNAT1_Y55_A54V]", "FGFR3 (UniProt P22607)", 0.915],
  ["EDEGLYMVRVP [MYOM3_Y343]", "FGFR3 (UniProt P22607)", 0.736],
  ["NACGLYHKMNG [GATA5_Y216]", "FGFR3 (UniProt P22607)", 0.567],
  ["FPIDHYLGKEM [G6PD_Y202_R198P_YF]", "FGFR3 (UniProt P22607)", 0.619],
  ["GGQVFYNSEFG [FLT4_Y1333_YF]", "FGFR3 (UniProt P22607)", 0.766],
  ["LTECGYSFTTT [ACTB_Y198_R196C]", "FGFR3 (UniProt P22607)", 0.754],
  ["NVVVPYEPPEV [TP53_Y220_S215N]", "FGFR3 (UniProt P22607)", 0.69],
  ["MALDIYRASYY [ALK_Y1278_R1275L]", "FGFR3 (UniProt P22607)", 0.713],
  ["TPTYPYLLPKS [PLD2_Y580]", "FGFR3 (UniProt P22607)", 0.505]
]}
